# test.method.notes: Stability investigation of the crystalline forms (HPLC purity, samples placed open and flat)
# Type: physicochemical
# settings: heating at 60° C., Day 5
quantity.kind: HPLC purity Day 5 (%)
Answers are plain numbers, in %.

> print(dat)
                                   molecule  recorded.number
1  COC(=O)[C@H](c1ccccc1Cl)N1CC[C@@H]2SC(=O)C=C2C1 [Example 7]            99.85
2  COC(=O)[C@H](c1ccccc1Cl)N1CC[C@@H]2SC(=O)C=C2C1 (racemic) [Comparative preparation example 1, reference compound]            95.45
3  COC(=O)[C@H](c1ccccc1Cl)N1CC[C@@H]2SC(=O)C=C2C1 [Example 3]            99.90
4  COC(=O)[C@H](c1ccccc1Cl)N1CC[C@@H]2SC(=O)C=C2C1 [Example 5]            99.85
5  COC(=O)[C@H](c1ccccc1Cl)N1CC[C@@H]2SC(=O)C=C2C1 (racemic) [Comparative preparation example 2, reference compound]            95.23
6  COC(=O)[C@H](c1ccccc1Cl)N1CC[C@@H]2SC(=O)C=C2C1 [Example 2]            99.87
7  COC(=O)[C@H](c1ccccc1Cl)N1CC[C@@H]2SC(=O)C=C2C1 [Example 1]            99.79
8  COC(=O)[C@H](c1ccccc1Cl)N1CC[C@@H]2SC(=O)C=C2C1 [Example 4]            99.87

Hi team, please reply with HPLC purity Day 5 (%) for each item in this list.
1. COC(=O)[C@H](c1ccccc1Cl)N1CC[C@@H]2SC(=O)C=C2C1 [Example 6]
2. COC(=O)[C@H](c1ccccc1Cl)N1CC[C@@H]2SC(=O)C=C2C1 (racemic) [Comparative preparation example 3, reference compound]

[99.89, 96.60]
